# SYSTEM: T1, Fusion protein of extracellular domain of human TIGIT and His-tag (human TIGIT ECD-his) (human)
# T1 chain: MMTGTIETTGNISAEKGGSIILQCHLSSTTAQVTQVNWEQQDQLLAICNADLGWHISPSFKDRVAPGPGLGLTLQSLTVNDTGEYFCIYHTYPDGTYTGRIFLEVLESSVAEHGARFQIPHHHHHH
# TEST_DESCRIPTION: BIAcore; KD ratio to TIGIT-CHI-006
Binary label based on Fold change vs chimeric antibodies (KD) with cut-off 9 fold: below gives y, not below gives n.

# example entries with known answers
>>> class_name("TIGIT-006-H3L2 (antibody, V domains shown, Humanized anti-TIGIT antibody) VH: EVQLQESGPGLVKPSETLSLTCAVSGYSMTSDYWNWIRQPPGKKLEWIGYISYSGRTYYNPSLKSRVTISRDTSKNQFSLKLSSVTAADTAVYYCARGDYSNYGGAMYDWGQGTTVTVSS VL: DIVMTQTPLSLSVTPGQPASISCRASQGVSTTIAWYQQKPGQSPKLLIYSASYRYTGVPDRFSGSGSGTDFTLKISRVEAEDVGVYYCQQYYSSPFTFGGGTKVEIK")
"n"
>>> class_name("TIGIT-006-H2L2 (antibody, V domains shown, Humanized anti-TIGIT antibody) VH: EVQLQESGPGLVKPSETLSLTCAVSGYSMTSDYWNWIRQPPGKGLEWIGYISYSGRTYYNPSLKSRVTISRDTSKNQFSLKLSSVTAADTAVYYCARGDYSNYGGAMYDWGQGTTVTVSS VL: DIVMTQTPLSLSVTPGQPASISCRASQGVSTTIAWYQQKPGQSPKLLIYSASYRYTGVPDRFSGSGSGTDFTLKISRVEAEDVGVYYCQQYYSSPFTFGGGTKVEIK")
"n"
>>> class_name("TIGIT-006-H4L2 (antibody, V domains shown, Humanized anti-TIGIT antibody) VH: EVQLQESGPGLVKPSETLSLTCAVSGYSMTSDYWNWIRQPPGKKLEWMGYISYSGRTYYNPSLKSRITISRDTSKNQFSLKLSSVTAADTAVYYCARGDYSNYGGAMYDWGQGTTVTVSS VL: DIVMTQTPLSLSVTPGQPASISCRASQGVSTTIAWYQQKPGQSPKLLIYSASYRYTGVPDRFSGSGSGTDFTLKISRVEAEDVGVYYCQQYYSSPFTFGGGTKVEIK")
"y"

As a next step, examine the binder that follows.
**Query** Record TIGIT-006-H4L1 (antibody, V domains shown, Humanized anti-TIGIT antibody) VH: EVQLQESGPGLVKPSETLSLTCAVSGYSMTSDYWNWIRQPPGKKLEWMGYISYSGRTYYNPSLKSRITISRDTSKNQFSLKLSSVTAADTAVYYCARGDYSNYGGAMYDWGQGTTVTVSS VL: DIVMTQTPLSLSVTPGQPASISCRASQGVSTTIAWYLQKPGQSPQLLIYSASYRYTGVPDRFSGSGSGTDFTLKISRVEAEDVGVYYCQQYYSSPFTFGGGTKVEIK : is its Fold change vs chimeric antibodies (KD) strictly below 9 fold?
**Result** y

Measured values drawn from patent US20240343803A1 for this set.
